Provenance of the data: paper PMC4581252

- System: Caco-2 cell monolayer
- ASSAY NAME: Caco-2 permeation of pure compounds related to PEHS (individual permeability assays)
- Assay type: in vitro ADME, human
- CONDITION SET: pure compounds
MEASURED ENDPOINT: Absorption across the Caco-2 intestinal barrier model (in words)

| COMPOUND | SYSTEM TESTED | VALUE OBSERVED |
| --- | --- | --- |
| O=C(O)[C@H]1O[C@@H](Oc2c(-c3ccc(O)c(O)c3)oc3cc(O)cc(O)c3c2=O)[C@H](O)[C@@H](O)[C@@H]1O [Quercetin-3-glucuronide] | Caco-2 cell monolayer | lesser extent |
| COc1cc(/C=C/C(=O)NCCc2ccc(O)cc2)ccc1O | Caco-2 cell monolayer | significant absorption |
| O=c1c(O)c(-c2ccc(O)c(O)c2)oc2cc(O)cc(O)c12 | Caco-2 cell monolayer | significant absorption |
| O=c1c(O[C@@H]2O[C@H](CO)[C@@H](O)[C@H](O)[C@H]2O)c(-c2ccc(O)c(O)c2)oc2cc(O)cc(O)c12 [Quercetin-3-glucoside] | Caco-2 cell monolayer | lesser extent |

----------
- Tested on: Caco-2 cell monolayer
- ASSAY NAME: Caco-2 permeation of pure compounds related to PEHS (individual permeability assays)
- Format: in vitro ADME, human
- CONDITION SET: 120 min; donor: quercetin 18.1, quercetin-3-glucoside 46.4, quercetin-3-glucuronide 47.8, N-feruloyltyramine 31.3 μg/mL; X ± SD
Kindly state Concentration in the receptor chamber, Apical-Basolateral Flux for each of the entries shown.
One number for each entry, in µg/mL.

Solved entries:
| MOLECULE | VALUE OBSERVED |
| --- | --- |
| COc1cc(/C=C/C(=O)NCCc2ccc(O)cc2)ccc1O | 6.6 |
| O=c1c(O)c(-c2ccc(O)c(O)c2)oc2cc(O)cc(O)c12 | 1.32 |

Query molecule follows.
Fill in Concentration in the receptor chamber, Apical-Basolateral Flux for record O=c1c(O[C@@H]2O[C@H](CO)[C@@H](O)[C@H](O)[C@H]2O)c(-c2ccc(O)c(O)c2)oc2cc(O)cc(O)c12 [Quercetin-3-glucoside]
0.47

----------
- System: Caco-2 cell monolayer
- ASSAY NAME: Caco-2 permeation of pure compounds related to PEHS (individual permeability assays)
- Format: in vitro ADME, human
- CONDITION SET: 60 min; donor: quercetin 18.1, quercetin-3-glucoside 46.4, quercetin-3-glucuronide 47.8, N-feruloyltyramine 31.3 μg/mL; X ± SD
MEASURED ENDPOINT: Concentration in the receptor chamber, Apical-Basolateral Flux (ng/mL)
Give bare numbers, in ng/mL.

| SMILES INPUT | VALUE OBSERVED |
| --- | --- |
| COc1cc(/C=C/C(=O)NCCc2ccc(O)cc2)ccc1O | 2300 |

Shift focus to the following entry.
Dear colleague, please send me the reported Concentration in the receptor chamber, Apical-Basolateral Flux for O=c1c(O)c(-c2ccc(O)c(O)c2)oc2cc(O)cc(O)c12 when you can.
490

----------
Please respond with reported Concentration in the receptor chamber, Basolateral-Apical Flux for every item in the list.
- Test system: Caco-2 cell monolayer
- ASSAY NAME: Caco-2 permeation of pure compounds related to PEHS (individual permeability assays)
- Assay type: in vitro ADME, human
- CONDITION SET: 30 min (so in the source); donor: quercetin 18.1, quercetin-3-glucoside 46.4, quercetin-3-glucuronide 47.8, N-feruloyltyramine 31.3 μg/mL; X ± SD
Answers are plain numbers, in µg/mL.

| SMILES INPUT | READOUT UNIT | VALUE OBSERVED |
| --- | --- | --- |
| COc1cc(/C=C/C(=O)NCCc2ccc(O)cc2)ccc1O | µg/mL | 1.35 |

Item O=c1c(O)c(-c2ccc(O)c(O)c2)oc2cc(O)cc(O)c12 : provide Concentration in the receptor chamber, Basolateral-Apical Flux
1.1

----------
- Test system: Caco-2 cell monolayer
- ASSAY NAME: Caco-2 permeation of pure compounds related to PEHS (individual permeability assays)
- Assay type: in vitro ADME, human
- CONDITION SET: 30 min; donor: quercetin 18.1, quercetin-3-glucoside 46.4, quercetin-3-glucuronide 47.8, N-feruloyltyramine 31.3 μg/mL; X ± SD
MEASURED ENDPOINT: Concentration in the receptor chamber, Apical-Basolateral Flux

| COMPOUND | SYSTEM TESTED | VALUE OBSERVED |
| --- | --- | --- |
| O=c1c(O)c(-c2ccc(O)c(O)c2)oc2cc(O)cc(O)c12 | Caco-2 cell monolayer | 280 ± 20 ng/mL |
| COc1cc(/C=C/C(=O)NCCc2ccc(O)cc2)ccc1O | Caco-2 cell monolayer | 690 ± 20 ng/mL |
| O=c1c(O[C@@H]2O[C@H](CO)[C@@H](O)[C@H](O)[C@H]2O)c(-c2ccc(O)c(O)c2)oc2cc(O)cc(O)c12 [Quercetin-3-glucoside] | Caco-2 cell monolayer | <LOQ |

----------
- Tested on: Caco-2 cell monolayer
- ASSAY NAME: Caco-2 permeation of pure compounds related to PEHS (individual permeability assays)
- Type: in vitro ADME, human
- CONDITION SET: 90 min; donor: quercetin 18.1, quercetin-3-glucoside 46.4, quercetin-3-glucuronide 47.8, N-feruloyltyramine 31.3 μg/mL; X ± SD
MEASURED ENDPOINT: Concentration in the receptor chamber, Apical-Basolateral Flux (µg/mL)
Give bare numbers, in µg/mL.

| SMILES INPUT | VALUE OBSERVED |
| --- | --- |
| O=c1c(O)c(-c2ccc(O)c(O)c2)oc2cc(O)cc(O)c12 | 1.33 |

Give Concentration in the receptor chamber, Apical-Basolateral Flux for the following compound: COc1cc(/C=C/C(=O)NCCc2ccc(O)cc2)ccc1O
4.2
